# credit: patent US20230000842A1

target: CLK3 kinase (Homo sapiens); assay: CLK3 kinase activity assay (Z-lyte FRET); conditions: Z-lyte Ser/Thr 18 peptide, 156 μM ATP, 1 h at room temperature;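 also: kinase activity read as coumarin/fluorescein emission ratio by FRET, unphosphorylated peptide as 0% and phosphorylated peptide as 100% control, values from non-linear regression of dose-response curves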
Sequence (P49761 whole entry): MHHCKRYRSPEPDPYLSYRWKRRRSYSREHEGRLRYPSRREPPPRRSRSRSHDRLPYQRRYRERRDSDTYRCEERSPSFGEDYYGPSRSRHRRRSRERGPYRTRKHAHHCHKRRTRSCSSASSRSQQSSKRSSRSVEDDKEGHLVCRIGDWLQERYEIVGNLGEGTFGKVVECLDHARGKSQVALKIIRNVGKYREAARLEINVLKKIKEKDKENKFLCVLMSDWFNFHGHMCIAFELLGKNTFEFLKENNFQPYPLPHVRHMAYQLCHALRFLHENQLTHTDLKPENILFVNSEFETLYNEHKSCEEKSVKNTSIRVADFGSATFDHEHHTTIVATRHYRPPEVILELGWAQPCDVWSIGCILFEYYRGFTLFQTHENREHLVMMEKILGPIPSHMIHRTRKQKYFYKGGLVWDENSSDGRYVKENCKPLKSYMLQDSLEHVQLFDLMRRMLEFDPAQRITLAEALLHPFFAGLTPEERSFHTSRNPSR
quantity name: EC50 (nM)
One number for each entry, in nM.

Working through the 2 compounds below one at a time, give EC50 for each.
1. O=C(Nc1cncc(-c2cc3c(-c4cc5cccnc5[nH]4)n[nH]c3cn2)c1)C1CC1 [compound 427]
2. Nc1cncc(-c2ccc3[nH]nc(-c4cc5c(N6CCCCC6)ccnc5[nH]4)c3c2)c1 [compound 455]

1: 9840; 2: 110

Working through the 5 compounds below one at a time, give EC50 for each.
1. Cc1ccncc1-c1cc2c(-c3nc4c(-c5cc(F)cc(CNS(C)(=O)=O)c5)cccc4[nH]3)n[nH]c2cn1 [compound 288]
2. CN1CCC(Oc2ccc3[nH]c(-c4n[nH]c5ccc(-c6cnn(C)c6)cc45)nc3c2)CC1 [compound 299]
3. Cc1n[nH]c2ccc(-c3cncc(N[C@H]4CC[C@H](O)CC4)n3)cc12 [compound 43]
4. FC1(F)CCN(Cc2cncc(-c3cc4c(-c5nc6c(N7CCCCC7)cncc6[nH]5)n[nH]c4cn3)c2)C1 [compound 212]
5. CCNCc1cncc(-c2cc3c(-c4cc5c(-c6cccnc6)cncc5[nH]4)n[nH]c3cn2)c1 [compound 367]

37
29
309
89
214

Working through the 7 compounds below one at a time, give EC50 for each.
1. c1cncc(-c2ccc3[nH]nc(-c4cc5c(-c6cccnc6)ccnc5[nH]4)c3n2)c1 [compound 344]
2. CC(=O)Nc1cncc(-c2ccc3[nH]nc(-c4cc5c(N6CCCCC6)nccc5[nH]4)c3c2)c1 [compound 457]
3. COc1cncc(-c2cc3c(-c4nc5c(-c6cccc(F)c6)cncc5[nH]4)n[nH]c3cn2)c1 [compound 147]
4. CN1CCN(c2cc(C(=O)Nc3cc4cc(-c5ccc(N)nc5)ccc4cn3)ccn2)CC1 [compound 596]
5. O=C(Nc1cncc(-c2cnc3[nH]nc(-c4nc5c(-c6ccoc6)cncc5[nH]4)c3c2)c1)c1ccccc1 [compound 235]
6. CC(C)N1CCC(n2cc(C(=O)Nc3cc4cc(-c5cn(C)nn5)ccc4cn3)cn2)CC1 [compound 579]
7. CCCCC(=O)Nc1cncc(-c2ccc3[nH]nc(-c4cc5c(N6CCCCC6)nccc5[nH]4)c3n2)c1 [compound 459]

[9840, 52, 493, 42, 2630, 19, 269]
